Test system: ACHN renal
experimentDescription: NCI-60 one-dose screen, 48 h (100 = growth as untreated, 0 = no growth, -100 = all killed)
runParameters: 10 µM
About 83,000 compounds went through this panel and 20% of them were active in at least one assay; those are over-represented in the sample as a whole.
Item-by-item account of growth
Enter your answer as a number in %; do not include the unit.

Answered cases to consult:
Let me know recorded growth for O=C(CN1CCN(c2ncnc3c2cnn3-c2ccccc2)CC1)Nc1nncs1 , thanks. -87.5

Write down growth measured for item Cc1cc(C)nc(NS(=O)(=O)c2ccc(N/C(N)=N/c3nccc(-c4cccs4)n3)cc2)n1 94.8

Further cases:
Could you please provide reported growth for Nc1nc(Nc2ccccc2)nn1Cc1c(Cl)cccc1Cl ? Thanks! 13.9

Look up and report measured growth for this entry: Cc1ccc(-c2ccc(SCC(=O)Nc3ccc(S(N)(=O)=O)cc3Br)nn2)cc1 11.7

Note growth for the molecule shown: CCOc1ccc(/C=N/NC(=O)Cn2nc(Cc3ccccc3)c3onc(C)c3c2=O)cc1 6.42

Retrieve growth measured for Cc1ccc(/C=C/C(=O)c2ccc(S(=O)(=O)NCCNc3nc(Nc4ccc(F)cc4)nc(N(C)C)n3)cc2)cc1 and print it. 11.9

Write down growth measured for item COc1cnc2c(c1)C(=O)c1c-2n(CCCNCCO)c(=O)c2cc(OC)c(OC)cc12 3.42

Quickly give me recorded growth for CSc1nc(-c2cccc(C)c2)c2cc(-c3ccccc3)n(C)c2n1 32.4

Name the recorded growth of the molecule listed here: COc1cccc(/C=C2\N=C(C)N(CCc3ccc(S(N)(=O)=O)cc3)C2=O)c1 107

For the molecule Cc1ccc(-c2nc(Nc3ccc(S(N)(=O)=O)cc3)c3ccccc3n2)cc1 , give its measured growth value. 42.8

Output measured growth for this item: O=c1[nH][nH]c(Nc2ccccc2)c1N=Nc1ccc(F)cc1 86.2

Kindly indicate its recorded growth. Item: COc1cc(OC(F)(F)F)ccc1C(=O)Nc1sc2c(c1C#N)CCC(=O)C2 87.1

Read the entry CC(=O)Oc1ccccc1C(=O)Oc1ccc(C(=O)/C=C/c2ccncc2)cc1 and write its reported growth. 56

Given the molecule COc1ccc(C(=O)Nc2sc3c(c2C#N)CCC(=O)C3)cc1C(F)(F)F , write its reported growth. -29.9

// Input: CC(=C(c1ccc(OCCN2CCCCC2)cc1)c1ccc(OCCN2CCCCC2)cc1)c1ccccc1 . Output its growth only. 12.7

Please supply the value of reported growth for the item O=C(NO)c1ccc(CNC(=O)[C@H]2Cc3c([nH]c4ccccc34)[C@H](c3ccc(Cl)cc3)N2)cc1 28.6

Give me measured growth, please, for this molecule: CN(CCF)c1ccc(/C=C/C(=O)c2ccc(N)cc2O)cc1 79.3

Dear colleague, please send me the reported growth for COc1cc(/C=C/C(=O)c2ccc(S(=O)(=O)NCCNc3nc(Nc4ccc(F)cc4)nc(N(C)C)n3)cc2)cc(OC)c1OC when you can. -49

Using the record for CC(=O)c1cc(C(=O)N2c3ccccc3Sc3ccccc32)n2ccc(C)cc12 , state its measured growth. 29.1
